- Assay Name: Pharmacokinetic study of 153 (and metabolite endothal) in SD rats, iv and po; plasma, liver, brain
- Type: in vivo
- Condition Label: female, Sprague-Dawley (SD), rat, in vivo; Liver, 1.25 mg/kg IV, Mean; read-out: Tmax
Observed Property: Tmax (min)

> print(dat)
                                   molecule  output.unit  reading
1  CCCOC(=O)C1C2CCC(O2)C1C(=O)N1CCN(C)CC1 (stereo not shown)          min       15

---

- Assay Name: in vivo
- Condition Label: female, Sprague-Dawley, rat, in vivo, iv, 1.5 mg/kg, 100 plasma concentration
Observed Property: concentration at 1 h (ng/mL)

> print(dat)
                                   molecule  reading
1  CN1CCN(C(=O)C2C3CCC(O3)C2C(=O)O)CC1 (stereo not shown)     1760

Sourced from patent US20160264593A1
